Measured MRT, listed per entry for reference.
- test.details: Pharmacokinetic analysis following intravenous administration to beagle dogs
- Format: in vivo
- conditions: male, beagle, dog, in vivo, iv, 0.5 mg/kg
Expressed in h, but write only the number.

compound	numeric.value
O=C(NCc1ccc(F)cc1F)c1cn2c(c(O)c1=O)C(=O)N1C(C2)O[C@@H]2CCC[C@H]1C2 (stereo partly drawn) [Compound 8]	1.8
O=C(NCc1ccc(F)cc1F)c1cn2c(c(O)c1=O)C(=O)N1C(C2)O[C@H]2CCC[C@@H]1C2 (stereo partly drawn) [Compound 7]	2.3

Kindly note the recorded MRT for O=C(NCc1c(F)cc(F)cc1F)c1cn2c(c(O)c1=O)C(=O)N1[C@@H](C2)[C@H]2C[C@@H]1C(F)(F)C2 [Compound 98] , which is 3.3

Given item O=C(NCc1c(F)cc(F)cc1F)c1cn2c(c(O)c1=O)C(=O)N1[C@H]3CC[C@H](C3)[C@H]1C2 [Compound 55] , the value recorded as its MRT is 4.2

----------
- system.name: OCT2 (Homo sapiens (Human), UniProt O15244)
- Sequence (O15244 whole entry): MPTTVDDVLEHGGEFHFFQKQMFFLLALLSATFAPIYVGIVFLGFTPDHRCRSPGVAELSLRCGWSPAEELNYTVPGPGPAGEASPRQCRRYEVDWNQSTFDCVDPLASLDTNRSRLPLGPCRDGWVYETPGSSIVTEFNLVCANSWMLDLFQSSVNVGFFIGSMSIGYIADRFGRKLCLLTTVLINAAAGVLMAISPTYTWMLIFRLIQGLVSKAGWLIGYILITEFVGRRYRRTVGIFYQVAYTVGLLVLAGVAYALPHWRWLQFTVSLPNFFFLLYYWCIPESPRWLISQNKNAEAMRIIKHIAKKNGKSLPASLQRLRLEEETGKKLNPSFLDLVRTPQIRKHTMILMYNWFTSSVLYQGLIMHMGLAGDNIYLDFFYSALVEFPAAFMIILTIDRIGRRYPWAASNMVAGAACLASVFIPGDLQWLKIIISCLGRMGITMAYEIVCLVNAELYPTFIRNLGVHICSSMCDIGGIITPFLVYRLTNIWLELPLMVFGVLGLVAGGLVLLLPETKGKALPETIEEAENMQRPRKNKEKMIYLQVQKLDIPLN
- test.details: OCT2 inhibition assay (14C-TEA uptake, OCT2-transfected MDCKII cells)
- Assay type: cell-based
pIC50: −log10 of the molar value.
So basically: pIC50 at 6 or higher? That is Y. Lower than 6? That is N.

compound	classification
C[C@@H](NC(=O)c1cn2c(c(O)c1=O)C(=O)N1[C@H]3CC[C@H](C3)[C@@H]1C2)c1c(F)cc(F)cc1F	N

Problem: Please tell me: is the compound C[C@@H](NC(=O)c1cn2c(c(O)c1=O)C(=O)N1[C@@H]3CC[C@@H](C3)O[C@H]1C2)c1ccc(F)cc1F at or over 6 in terms of pIC50?
Solution: N

Problem: Threshold query (pIC50 >= 6) on O=C(NCc1c(F)cc(F)cc1F)c1cn2c(c(O)c1=O)C(=O)N1[C@H]3CC[C@H](C3)[C@@H]1C2
Solution: N

Problem: Hi, just wondering whether CC1CC2CC1OC1Cn3cc(C(=O)NCc4ccc(F)cc4F)c(=O)c(O)c3C(=O)N21 (single isomer, unassigned) shows pIC50 of 6 or higher.
Solution: Y

----------
Emax at 24 h, 15 µM values for the compounds below.
- system.name: PXR (Homo sapiens (Human), UniProt O75469)
- Sequence (O75469 whole entry): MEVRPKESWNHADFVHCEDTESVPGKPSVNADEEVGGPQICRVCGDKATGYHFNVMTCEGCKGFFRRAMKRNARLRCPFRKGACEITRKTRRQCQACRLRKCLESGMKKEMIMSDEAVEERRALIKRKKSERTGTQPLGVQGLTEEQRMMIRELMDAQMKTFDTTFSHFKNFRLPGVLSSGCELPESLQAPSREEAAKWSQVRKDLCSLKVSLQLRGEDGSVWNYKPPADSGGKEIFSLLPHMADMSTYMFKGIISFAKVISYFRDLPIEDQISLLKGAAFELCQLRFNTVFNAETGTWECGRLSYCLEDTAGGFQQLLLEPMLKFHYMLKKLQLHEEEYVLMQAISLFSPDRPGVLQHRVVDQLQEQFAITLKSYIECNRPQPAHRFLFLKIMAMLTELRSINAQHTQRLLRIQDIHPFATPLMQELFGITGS
- test.details: Human PXR activation assay (luciferase reporter gene assay, DPX2 cells)
- Format: cell-based
- conditions: human; 15 μM; relative to maximum fold induction by 10 or 20 μM rifampicin; DPX2 cells, 24 hours; read-out: % Emax at 15 μM
Dear colleague, please return just the value in %, with no unit written.

Some compounds with known Emax at 24 h, 15 µM results, for comparison:
compound	system.name	Emax at 24 h, 15 µM / %
C[C@@H]1CCO[C@H]2Cn3cc(C(=O)NC4(c5ccc(F)cc5F)CC4)c(=O)c(O)c3C(=O)N12	PXR (Homo sapiens (Human), UniProt O75469)	32
O=C(NCc1ccc(F)cc1F)c1cn2c(c(O)c1=O)C(=O)N1C(C2)[C@H]2CC[C@@H]1C2 (stereo in doubt) [Compound 48]	PXR (Homo sapiens (Human), UniProt O75469)	5
O=C(NCc1c(F)cc(F)cc1F)c1cn2c(c(O)c1=O)C(=O)N1[C@@H]3CC[C@@H](C3)O[C@H]1C2	PXR (Homo sapiens (Human), UniProt O75469)	19
CC1CC2CC1OC1Cn3cc(C(=O)NCc4ccc(F)cc4F)c(=O)c(O)c3C(=O)N21 (single isomer, unassigned)	PXR (Homo sapiens (Human), UniProt O75469)	0
C[C@H]1C[C@@H]2C[C@H]1O[C@H]1Cn3cc(C(=O)NCc4ccc(F)cc4F)c(=O)c(O)c3C(=O)N21	PXR (Homo sapiens (Human), UniProt O75469)	6
C[C@H]1CO[C@@H]2Cn3cc(C(=O)NC4(c5ccc(F)cc5F)CC4)c(=O)c(O)c3C(=O)N12	PXR (Homo sapiens (Human), UniProt O75469)	2

Looking up O=C(NCc1c(F)cc(F)cc1F)c1cn2c(c(O)c1=O)C(=O)N1[C@H]3C[C@H](C3)[C@H]1C2 (single isomer, unassigned) , I found its Emax at 24 h, 15 µM recorded as 11

----------
Listed here: items and their measured IC50.
- system.name: OCT2 (Homo sapiens (Human), UniProt O15244)
- test.details: OCT2 inhibition assay (14C-TEA uptake, OCT2-transfected MDCKII cells)
- Type: cell-based
- conditions: OCT2 mediated uptake of 14C-TEA (20 μM), MDCKII cells; read-out: IC50
The response must be a number in nM with no trailing unit.

molecule	IC50 / nM
O=C(NCc1c(F)cc(F)cc1F)c1cn2c(c(O)c1=O)C(=O)N1[C@H]3CC[C@H](C3)O[C@@H]1C2	487
O=C(NCc1ccc(F)cc1Cl)c1cn2c(c(O)c1=O)C(=O)N1[C@H]3CC[C@H](C3)O[C@@H]1C2	42
O=C(NCc1ccc(F)cc1F)c1cn2c(c(O)c1=O)C(=O)N1[C@H]3CC[C@H](C3)O[C@@H]1C2	240
O=C(NCc1ccc(F)cc1F)c1cn2c(c(O)c1=O)C(=O)N1[C@H]3CC[C@H](C3)[C@@H]1C2	6200
O=C(NCc1ccc(F)cc1F)c1cn2c(c(O)c1=O)C(=O)N1[C@H]3CC[C@H](CC3)[C@H]1C2	450

Moving on to the next molecule.
Value of measured IC50 for the entry C[C@@H]1CCO[C@H]2Cn3cc(C(=O)NC4(c5ccc(F)cc5F)CC4)c(=O)c(O)c3C(=O)N12 : 2230

----------
# Emax at 24 h, 15 µM listing for each entry below
- system.name: PXR (Homo sapiens (Human), UniProt O75469)
- test.details: Human PXR activation assay (luciferase reporter gene assay, DPX2 cells)
- Format: cell-based
- conditions: human
Express it in %; write the number only.

Example entries and their recorded answers appear below.
molecule	observation.type	numeric.value
O=C(NCc1cccc(Cl)c1F)c1cn2c(c(O)c1=O)C(=O)N1[C@H]3CC[C@H](C3)O[C@@H]1C2 [Compound 88]	Emax at 24 h, 15 µM	27
O=C(NCc1ccc(Cl)cc1F)c1cn2c(c(O)c1=O)C(=O)N1[C@@H]3CC[C@@H](C3)O[C@H]1C2 [Compound 17]	Emax at 24 h, 15 µM	7
O=C(NCc1ccc(F)c(F)c1F)c1cn2c(c(O)c1=O)C(=O)N1[C@@H]3CC[C@@H](C3)O[C@H]1C2 [Compound 44]	Emax at 24 h, 15 µM	4

Reported Emax at 24 h, 15 µM ( O=C(NCc1cc(Cl)c(F)cc1F)c1cn2c(c(O)c1=O)C(=O)N1[C@H]3CC[C@H](C3)[C@@H]1C2 [Compound 80] ) = 2

The molecule identified as O=C(N[C@@H](c1ccc(F)cc1F)C(F)(F)F)c1cn2c(c(O)c1=O)C(=O)N1C(C2)O[C@H]2CC[C@@H]1C2 (stereo partly shown) [Compound 36] registered its Emax at 24 h, 15 µM at 3

Measured Emax at 24 h, 15 µM, O=C(NCc1c(F)cc(F)cc1F)c1cn2c(c(O)c1=O)C(=O)N1[C@@H]3C[C@H]([C@@H]1C2)C(F)(F)C3 [Compound 57] : 3

Briefly, Emax at 24 h, 15 µM measured for O=C(NCc1ccc(F)cc1F)c1cn2c(c(O)c1=O)C(=O)N1C(C2)[N@@]2CCC[C@@H]1C2 (stereo partly shown) [Compound 20] : 2

Entry under test: O=C(NCc1c(F)cc(F)cc1F)c1cn2c(c(O)c1=O)C(=O)N1[C@@H]3C[C@@H]([C@H](F)C3)[C@@H]1C2 [Compound 59] . Its Emax at 24 h, 15 µM was 4

The molecule listed as O=C(NCc1c(F)cc(F)cc1F)c1cn2c(c(O)c1=O)C(=O)N1[C@H]3CC[C@H](C3)[C@@H]1C2 [Compound 41] shows Emax at 24 h, 15 µM equal to 11.5

Note to self: Emax at 24 h, 15 µM recorded for C[C@@H](NC(=O)c1cn2c(c(O)c1=O)C(=O)N1[C@H]3CC[C@H](C3)[C@@H]1C2)c1c(F)cc(F)cc1F [Compound 77] was 11

----------
- system.name: OCT2 (Homo sapiens (Human), UniProt O15244)
- test.details: OCT2 inhibition assay (14C-TEA uptake, OCT2-transfected MDCKII cells)
- Assay type: cell-based
- Method: On assay day, cells were trypsinized and resuspended in Krebs-Henseleit Buffer (KHB), pH 7.4 at […]. Cells were preincubated for 15 min in assay plate before addition of test compound or substrate. […] Samples were then counted on liquid scintillation counter and dpm counts were used to perform the following calculations.
The entries below come with measured pIC50 values attached.
In textbook form, pIC50 equals minus log to base ten of the concentration in mol/L.

pIC50 for O=C(NCc1c(F)cc(F)cc1F)c1cn2c(c(O)c1=O)C(=O)N1[C@@H]3C[C@@H](C[C@H]3F)[C@@H]1C2 is 5.00

Short answer for O=C(N[C@@H](c1ccc(F)cc1F)C(F)(F)F)c1cn2c(c(O)c1=O)C(=O)N1C(C2)O[C@H]2CC[C@@H]1C2 (stereo partly drawn) : pIC50 was 5.00

Query C[C@H](NC(=O)c1cn2c(c(O)c1=O)C(=O)N1[C@@H]3CC[C@@H](C3)O[C@H]1C2)c1ccc(F)cc1F yields pIC50 of 6.21

These data points were gathered from patent US9663528B2.
